Provide the reported log10 of IC50 of each item.
# Tested on: Humanthrombozyten
# Assay Details: Competitive binding of ³H-BIBU 52 / test substance to human platelets
# Settings: human platelets in plasma, ³H-BIBU 52 5 nM, 20 min at room temperature; read-out: Kompetitive Bindung ³H-BIBU 52 Textsubstanz an Humanthrombozyten IC₅₀
Answers are given as log10 of IC50 in nM.

Below, 3 molecules whose answers are already recorded.
Molecule	log10 of IC50
O=C(O)CCCCc1nnc(-c2ccc(C3CCNCC3)cc2)o1	3.83
CCCCS(=O)(=O)NC(Cc1cn(-c2ccc(-c3ccc(C(=N)N)cc3)nn2)cn1)C(=O)O (stereo not shown)	0.20
COC(=O)[C@H]1CC[C@H](c2nnc(-c3ccc(C4CCNCC4)cc3)s2)CC1	2.74

Dear reader, for each entry below, please note its log10 of IC50.
1. Cl.O=C(O)[C@H]1CC[C@H](c2nnc(-c3ccc(C4CCNCC4)cc3)s2)CC1
2. Cl.O=C(O)CCCCc1nnc(-c2ccc(C3CCNCC3)cc2)s1
3. COC(=O)CCNC(=O)c1nnc(-c2ccc(C3CCNCC3)cc2)s1
4. O=C(O)CCNC(=O)c1nnc(-c2ccc(C3CCNCC3)cc2)s1

1. 1.04
2. 2.71
3. 4.38
4. 2.60
